target: UniProt:O43781; assay: radiometric filter-binding kinase assay; conditions: compound 10.0 µM
Sequence (O43781 whole entry, looked up): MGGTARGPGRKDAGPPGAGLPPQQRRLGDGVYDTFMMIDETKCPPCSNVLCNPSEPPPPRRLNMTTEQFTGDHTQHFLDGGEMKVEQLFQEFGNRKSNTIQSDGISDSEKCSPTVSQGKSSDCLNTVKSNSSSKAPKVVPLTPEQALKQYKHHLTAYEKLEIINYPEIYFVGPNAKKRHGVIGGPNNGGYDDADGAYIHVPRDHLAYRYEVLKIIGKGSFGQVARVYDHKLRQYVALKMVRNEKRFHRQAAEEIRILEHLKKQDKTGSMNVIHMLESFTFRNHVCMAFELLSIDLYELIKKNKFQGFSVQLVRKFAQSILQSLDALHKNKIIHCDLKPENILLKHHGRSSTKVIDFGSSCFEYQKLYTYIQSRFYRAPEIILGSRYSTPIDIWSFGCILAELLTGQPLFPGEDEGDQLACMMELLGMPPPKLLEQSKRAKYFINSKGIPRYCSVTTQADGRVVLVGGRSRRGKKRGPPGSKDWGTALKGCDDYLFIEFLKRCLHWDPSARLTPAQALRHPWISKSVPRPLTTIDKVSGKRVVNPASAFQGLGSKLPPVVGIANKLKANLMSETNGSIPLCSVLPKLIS
measuredQuantity: residual activity (%)

Answered cases to consult:
compound: O=C(Nc1ccccc1-c1cn2c(CN3CCNCC3)csc2n1)c1cnc2ccccc2n1
unitDescriptor: %
residual activity: 64
--
compound: O=C(NOC[C@H](O)CO)c1ccc(F)c(F)c1Nc1ccc(I)cc1Cl
unitDescriptor: %
residual activity: 85
--
compound: O=C(O)c1cc(N=Nc2ccc(S(=O)(=O)Nc3ccccn3)cc2)ccc1O
unitDescriptor: %
residual activity: 77
--
compound: NC(=O)Nc1ccc2c(c1)/C(=C/c1cc(-c3cccnc3)c[nH]1)C(=O)N2
unitDescriptor: %
residual activity: 1
--
compound: N#Cc1c(O)c2c(-c3ccc(-c4ccccc4O)cc3)csc2[nH]c1=O
unitDescriptor: %
residual activity: 54
--
compound: CC1=C(CO)C(=O)O[C@@H]([C@@H](C)[C@H]2CC[C@H]3[C@@H]4C[C@H]5O[C@]56[C@@H](O)C=CC(=O)[C@]6(C)C4CC[C@]23C)C1 (stereo not given in full)
unitDescriptor: %
residual activity: 78

a = O=C1NC(=S)N[C@@H]1Cc1c[nH]c2ccccc12
b = O=c1c(O)c(-c2ccc(O)c(O)c2)oc2cc(O)c(O)c(O)c12
c = FC(F)(F)c1ccc(-c2ccc(Oc3cncc4sc(-c5nn[nH]n5)cc34)cc2)cc1
d = Oc1ccc(/C=C/c2cc(O)cc(O)c2)cc1
Q: Please rank these compounds by residual activity in descending order. Please reply with the labels ordered as requested. Many thanks.
Result: a, d, c, b
